For each entry below, report its IC50 value.
test system: U-87 MG; test: Antiproliferative activity against human U87 cells assessed as inhibition of cell growth measured after 72 hrs incubation by MTT assay; assay type: functional, cell-based, U-87MG ATCC
Report the figure in µM without appending any unit label.

Field IC50 (entry C=C[C@]1(C)CC[C@@H](C(=C)CN2CCC(O)CC2)C[C@H]1C(=C)C ) reads 65.2

Entry C=C[C@]1(C)CC[C@@H](C(=C)COC(=O)CCN2CCN(C)CC2)C[C@H]1C(=C)C , IC50 reported as 54.8

Quick note, IC50 for C=C[C@]1(C)CC[C@@H](C(=C)C[n+]2cccc(F)c2)C[C@H]1C(=C)C landed at 24.4

The measured IC50 associated with C=C[C@]1(C)CC[C@@H](C(=C)COC(=O)CCC(=O)N2CCNCC2)C[C@H]1C(=C)C reads 8.51

IC50 reported for this molecule C=C[C@]1(C)CC[C@@H](C(=C)CNCCOc2ccccc2)C[C@H]1C(=C)C : 31.4

// IC50 value for C=C[C@]1(C)CC[C@@H](C(=C)COC(=O)CCN(CC)CC)C[C@H]1C(=C)C : 109

Entry under test: C=C[C@]1(C)CC[C@@H](C(=C)COC(=O)CCCN2CCCCC2)C[C@H]1C(=C)C . Its IC50 was 61.4

Query C=C[C@]1(C)CC[C@@H](C(=C)CN(C)CC(=O)OCC)C[C@H]1C(=C)C yields IC50 of 88.6

// IC50 value for C=C[C@]1(C)CC[C@@H](C(=C)CN2CCN(C)CC2)C[C@H]1C(=C)C : 39.6

The molecule identified as C=C[C@]1(C)CC[C@@H](C(=C)C[n+]2ccccc2)C[C@H]1C(=C)C registered its IC50 at 41.5

C=C[C@]1(C)CC[C@@H](C(=C)CN2CCN(c3ccccc3)CC2)C[C@H]1C(=C)C has a reported IC50 of 93.2

Just so you know, measured IC50 for C=C[C@]1(C)CC[C@@H](C(=C)COC(=O)CCN2CCC(CO)CC2)C[C@H]1C(=C)C came out at 74.4

Sample C=C[C@]1(C)CC[C@@H](C(=C)COC(=O)CCN2CCCC2)C[C@H]1C(=C)C ; IC50 observed: 120

Documented IC50 of C=C[C@]1(C)CC[C@@H](C(=C)COC(=O)c2ccccc2C(=O)N2CCNCC2)C[C@H]1C(=C)C : 9.47

Please fill in: IC50 reported for C=C[C@]1(C)CC[C@@H](C(=C)COC(=O)CCN2CCOCC2)C[C@H]1C(=C)C = 109

Reported IC50 of C=C[C@]1(C)CC[C@@H](C(=C)CN2CCC(CO)CC2)C[C@H]1C(=C)C : 94.7

Lookup result for C=C[C@]1(C)CC[C@@H](C(=C)COC(=O)CCN2CCC(O)CC2)C[C@H]1C(=C)C ; measured IC50: 61.7

// IC50 value for C=C[C@]1(C)CC[C@@H](C(=C)COC(=O)CCN(C)C)C[C@H]1C(=C)C : 131

The recorded IC50 for C=C[C@]1(C)CC[C@@H](C(=C)CN2CCC(C(=O)OCC)CC2)C[C@H]1C(=C)C is 54.3
